Reference source: paper PMC11826918

- measurement target: T1, CD30 fused to rabbit Fc (Homo sapiens, UniProt P28908-1)
- T1 construct: signal peptide in the construct; human CD30 whole extracellular domains, NP_001234.3 amino acids 1-383; also called CD30-rFc; source: HEK293T, transfected, harvested from the culture supernatant; not shown: hinge and Fc (rabbit IgG1), C-terminal, kept
- T1 sequence (P28908 19-383): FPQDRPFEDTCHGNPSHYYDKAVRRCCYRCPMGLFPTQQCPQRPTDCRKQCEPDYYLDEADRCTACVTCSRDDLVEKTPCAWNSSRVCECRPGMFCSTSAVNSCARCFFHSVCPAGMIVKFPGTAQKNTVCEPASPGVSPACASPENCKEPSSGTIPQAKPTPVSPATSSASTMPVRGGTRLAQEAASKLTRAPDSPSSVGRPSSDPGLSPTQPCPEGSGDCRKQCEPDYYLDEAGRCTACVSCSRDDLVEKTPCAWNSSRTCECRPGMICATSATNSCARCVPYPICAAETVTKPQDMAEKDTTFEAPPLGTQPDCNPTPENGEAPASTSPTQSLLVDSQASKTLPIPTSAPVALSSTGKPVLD
- measurement protocol: ELISA; mutual competition: indicator cAb (0.75 μg/mL) captured on goat anti-human IgG Fc; CD30-rFc (50 ng/mL) pre-incubated overnight at 4 °C with competitor cAb (2.8 μg/mL); bound CD30-rFc probed with anti-rabbit IgG
- study conditions: one partner purified

{"binder": "T107 cAb (antibody, V domains shown) VH: QVQLQQSGPELVRPGVSVKISCKGSGYSFPDYPLHWVKQSHAKSLEWIGIILTYSGNTNYNQNFKGKATMTVDTSSNTAYLELARLTSEDSAIYYCATFYYGYDGAFDYWGQGTTLTVSS VL: DIVMTQSPSSLTVTAGEKVTMSCKSSQSLLNSGNQKNYLTWYQQKPGQPPKLLIHWASTRESGVPDRFTGSGSGTDFILTITSVQAEDLAVYYCQNDYTYPLTFGGGTKLELK", "binding result": "binds"}
